Reported IC50 values follow for various compounds
test system: Plasmodium falciparum; experiment: Antimalarial activity against mefloquine-susceptible Plasmodium falciparum CDC Indochina 3 W2 after 48 hrs by [3H]hypoxanthine uptake assay; type: functional, organism-based
Assay Endpoint: IC50

INSERT INTO results (compound, assay_endpoint, reported_measurement) VALUES
  ('COc1cc(NC(C)CCCN)c2nc(C(F)(F)F)cc(C)c2c1-c1cccc(C(F)(F)F)c1.O=C(O)CCC(=O)O (stereo not given)', 'IC50', '0.5 µg/mL'),
  ('COc1cc(NC(C)CCCN)c2ncccc2c1 (stereo not given)', 'IC50', '0.9 µg/mL'),
  ('COc1cc(C)c2c(-c3ccccc3)c(OC)cc(NC(C)CCCN)c2n1.O=C(O)CCC(=O)O (stereo not given)', 'IC50', '1.3 µg/mL'),
  ('COc1cc(NC(C)CCCN)c2nc(C(F)(F)F)cc(C)c2c1-c1ccccc1.O=C(O)CCC(=O)O (stereo not given)', 'IC50', '1.4 µg/mL'),
  ('COc1cc(C)c2c(-c3cccc(C)c3)c(OC)cc(NC(C)CCCN)c2n1.O=C(O)CCC(=O)O (stereo not given)', 'IC50', '0.7 µg/mL');

* * *

tested on: Plasmodium berghei; experiment: Prophylactic antimalarial activity against Plasmodium berghei infected Exoerythrocytic mouse model; assay type: functional
Assay Endpoint: MTD

INSERT INTO results (compound, test_target, reported_measurement) VALUES
  ('COc1cc(NC(C)CCCNC(=O)OC(C)(C)C)c2nc(C(F)(F)F)cc(C)c2c1-c1cccc(C)c1 (centres undefined)', 'Plasmodium berghei', '>960 mg/kg/day'),
  ('COc1cc(C)c2c(Oc3cccc(C(F)(F)F)c3)c(OC)cc(NC(C)CCCN)c2n1 (centres undefined)', 'Plasmodium berghei', '120 mg/kg/day'),
  ('COc1cc(C)c2c(-c3ccc(C(F)(F)F)cc3)c(OC)cc(NC(C)CCCN)c2n1.O=C(O)CCC(=O)O (centres undefined)', 'Plasmodium berghei', '>480 mg/kg/day'),
  ('COc1cccc(-c2c(OC)cc(NC(C)CCCNC(=O)OC(C)(C)C)c3nc(C(F)(F)F)cc(C)c23)c1 (centres undefined)', 'Plasmodium berghei', '>960 mg/kg/day');

* * *

assay: Half life in human microsomes by LC-MS/MS analysis; assay type: ADME, Microsome
Assay Endpoint: half-life

INSERT INTO measurements (compound, reported_measurement) VALUES
  ('COc1cc(C)c2c(-c3ccc(Cl)c(Cl)c3)c(OC)cc(NC(C)CCCN)c2n1.O=C(O)CCC(=O)O (configuration not stated)', '> 1 h'),
  ('COc1cc(NC(C)CCCNC(=O)OC(C)(C)C)c2nc(C(F)(F)F)cc(C)c2c1-c1cccc(C)c1 (configuration not stated)', '0.217 h'),
  ('COc1cc(NC(C)CCCN)c2ncccc2c1 (configuration not stated) [PRIMAQUINE]', '> 1 h'),
  ('COc1cccc(-c2c(OC)cc(NC(C)CCCN)c3nc(OC)cc(C)c23)c1.O=C(O)CCC(=O)O (configuration not stated)', '> 1 h'),
  ('COc1cc(NC(C)CCCN)c2nc(C(F)(F)F)cc(C)c2c1-c1cccc(C(F)(F)F)c1.O=C(O)CCC(=O)O (configuration not stated)', '> 1 h'),
  ('COc1cccc(-c2c(OC)cc(NC(C)CCCNC(=O)OC(C)(C)C)c3nc(C(F)(F)F)cc(C)c23)c1 (configuration not stated)', '0.15 h'),
  ('COc1cc(NC(C)CCCN)c2nc(C(F)(F)F)cc(C)c2c1-c1cccc(C)c1.O=C(O)CCC(=O)O (configuration not stated)', '> 1 h'),
  ('COc1cc(C)c2c(Oc3cccc(C(F)(F)F)c3)c(OC)cc(NC(C)CCCN)c2n1 (configuration not stated) [TAFENOQUINE]', '> 1 h'),
  ('COc1cc(C)c2c(-c3cccc(C)c3)c(OC)cc(NC(C)CCCN)c2n1.O=C(O)CCC(=O)O (configuration not stated)', '> 1 h'),
  ('COc1cc(NC(C)CCCNC(=O)OC(C)(C)C)c2nc(C(F)(F)F)cc(C)c2c1-c1ccc(C(F)(F)F)cc1 (configuration not stated)', '0.5 h'),
  ('COc1cccc(-c2c(OC)cc(NC(C)CCCN)c3nc(C(F)(F)F)cc(C)c23)c1.O=C(O)CCC(=O)O (configuration not stated)', '> 1 h'),
  ('COc1cc(NC(C)CCCN)c2nc(C(F)(F)F)cc(C)c2c1-c1ccc(C(F)(F)F)cc1.O=C(O)CCC(=O)O (configuration not stated)', '> 1 h'),
  ('COc1cc(C)c2c(-c3ccc(C(F)(F)F)cc3)c(OC)cc(NC(C)CCCN)c2n1.O=C(O)CCC(=O)O (configuration not stated)', '> 1 h'),
  ('COc1cc(C)c2c(-c3cccc(C(F)(F)F)c3)c(OC)cc(NC(C)CCCN)c2n1.O=C(O)CCC(=O)O (configuration not stated)', '> 1 h'),
  ('COc1cc(C)c2c(-c3ccccc3)c(OC)cc(NC(C)CCCN)c2n1.O=C(O)CCC(=O)O (configuration not stated)', '> 1 h'),
  ('COc1cc(NC(C)CCCN)c2nc(C(F)(F)F)cc(C)c2c1-c1ccccc1.O=C(O)CCC(=O)O (configuration not stated)', '> 1 h'),
  ('COc1cc(NC(C)CCCNC(=O)OC(C)(C)C)c2nc(C(F)(F)F)cc(C)c2c1-c1cccc(C(F)(F)F)c1 (configuration not stated)', '0.3 h');
